- TEST PROTOCOL: method code SF-AS, from DOI: 10.1021/je900189v
RECORDED METRIC: logP

>  <SMILES STRUCTURE>
Cc1cc(N)ccc1S(=O)(=O)Nc1ccccc1[N+](=O)[O-]

>  <logP>
2.19

$$$$
>  <SMILES STRUCTURE>
O=S(=O)(Nc1cccc(Cl)c1Cl)c1ccccc1

>  <logP>
3.45

$$$$
>  <SMILES STRUCTURE>
Cc1cc(N)ccc1S(=O)(=O)Nc1ccc(Cl)cc1

>  <logP>
2.73

$$$$
>  <SMILES STRUCTURE>
Nc1ccc(S(=O)(=O)Nc2cc(Cl)c(Cl)cc2Cl)cc1

>  <logP>
3.17

$$$$
>  <SMILES STRUCTURE>
O=[N+]([O-])c1ccc(NS(=O)(=O)c2ccccc2)cc1

>  <logP>
2.09

$$$$
>  <SMILES STRUCTURE>
Cc1ccc(Cl)cc1NS(=O)(=O)c1ccc(N)cc1

>  <logP>
2.73

$$$$

----------
- TEST PROTOCOL: method code SF-AS, from DOI: 10.1021/je900189v
RECORDED METRIC: logP

>  <SMILES STRUCTURE>
CNS(=O)(=O)c1ccc(N)cc1

>  <RECORDED METRIC>
logP

>  <QUANTITATIVE READOUT>
0.07

$$$$
>  <SMILES STRUCTURE>
Nc1ccc(S(=O)(=O)Nc2ccc([N+](=O)[O-])cc2)cc1

>  <RECORDED METRIC>
logP

>  <QUANTITATIVE READOUT>
1.88

$$$$
>  <SMILES STRUCTURE>
COc1ccc(NS(=O)(=O)c2ccc(N)cc2)cc1

>  <RECORDED METRIC>
logP

>  <QUANTITATIVE READOUT>
1.58

$$$$
>  <SMILES STRUCTURE>
Cc1ccc(NS(=O)(=O)c2ccc(N)cc2)cc1Cl

>  <RECORDED METRIC>
logP

>  <QUANTITATIVE READOUT>
2.92

$$$$
>  <SMILES STRUCTURE>
Cc1cc(Cl)ccc1NS(=O)(=O)c1ccc(N)cc1

>  <RECORDED METRIC>
logP

>  <QUANTITATIVE READOUT>
2.65

$$$$

[a] Nc1ccc(S(=O)(=O)Nc2ccccc2Cl)c(Cl)c1
[b] O=[N+]([O-])c1ccc(S(=O)(=O)Nc2nccs2)cc1
## Task Field: entry with larger logP (options a / b ). Indicate your choice by writing its label.
## Result a
(a: 2.98, b: 1.19)

[a] CCN(CC)S(=O)(=O)c1ccc(N)cc1
[b] Nc1ccc(S(=O)(=O)Nc2ccc(Cl)c(Cl)c2)cc1
## Task Which has the higher logP, a or b ? Identify your pick by its label.
## Result b
(b: 2.64, a: 1.52)

----------
- TEST PROTOCOL: method code SF-AS, from DOI: 10.1021/je900189v
RECORDED METRIC: logP

Field: example entries. Status: answers known.
>  <SMILES STRUCTURE>
Cc1cc(N)ccc1S(=O)(=O)Nc1ccccc1Cl

>  <logP>
2.66

$$$$
>  <SMILES STRUCTURE>
O=S(=O)(Nc1cccnc1Cl)c1ccccc1

>  <logP>
1.89

$$$$
>  <SMILES STRUCTURE>
O=[N+]([O-])c1ccccc1NS(=O)(=O)c1ccccc1

>  <logP>
2.08

$$$$

[A] Nc1ccc(S(=O)(=O)Nc2cc(Cl)ccc2Cl)cc1
[B] CC(=O)Nc1ccncc1NS(=O)(=O)c1ccc([N+](=O)[O-])cc1
## Task # returns the entry with the larger logP; inputs A and B Write down the label attached to your selection.
## Result A
